Target: JAK1 (recombinant purified GST-tagged catalytic domain) (Homo sapiens (Human), UniProt P23458)
Sequence (P23458 875-1153): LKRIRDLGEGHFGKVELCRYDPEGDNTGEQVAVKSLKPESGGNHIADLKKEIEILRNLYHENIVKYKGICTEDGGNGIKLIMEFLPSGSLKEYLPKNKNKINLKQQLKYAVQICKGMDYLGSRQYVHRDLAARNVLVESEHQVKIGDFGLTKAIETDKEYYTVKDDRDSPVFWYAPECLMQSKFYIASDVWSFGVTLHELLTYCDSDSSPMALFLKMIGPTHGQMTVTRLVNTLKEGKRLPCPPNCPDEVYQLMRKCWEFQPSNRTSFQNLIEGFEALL
Test: Jak Biochemical HTRF Assay (JAK1)
Conditions: [ATP] 31.8 μM
Some compounds, each annotated with its measured log10 of IC50.
measured_metric: log10 of IC50 (log10 of the value in nM)

[
  {
    "compound": "CN(C)S(=O)(=O)c1ccc(Nc2nn(C3(CC#N)CCN(C(=O)Cc4ccc(C(F)(F)F)cc4)CC3)c3cc[nH]c(=O)c23)cc1",
    "readout_value": 0.02
  },
  {
    "compound": "N#CC[C@@]1(n2nc(Nc3ccc([C@]4(C(F)(F)F)CCCCN4)cc3)c3c(=O)[nH]ccc32)CCOC[C@@H]1F (single isomer, unassigned)",
    "readout_value": -1.30
  },
  {
    "compound": "CC(C)(C)NC(c1ccc(Nc2nn([C@]3(CC#N)CC[C@@H](C(=O)OC(C)(C)C)OC3)c3cc[nH]c(=O)c23)cc1)C(F)(F)F (single isomer, unassigned) [Example 5-194]",
    "readout_value": -0.28
  },
  {
    "compound": "CC(C)(C)OC(=O)[C@@H]1CC[C@@](CC#N)(n2nc(Nc3ccc(C(O)(C(C)(C)C)C(F)(F)F)cc3)c3c(=O)[nH]ccc32)CO1 (single isomer, unassigned) [Example 5-167]",
    "readout_value": -0.08
  },
  {
    "compound": "N#CC[C@@]1(n2nc(Nc3ccc4c(c3)CN(C3CCCC3)C4=O)c3c(=O)[nH]ccc32)CCCOC1",
    "readout_value": -0.89
  }
]
